Source: PubChem BioAssay (NCI)

// reported TGI for each item listed
# Test system: OVCAR-8 ovarian
# run.description: NCI tumour cell line growth inhibition, 48 h
Report only the number, with the unit µM understood.

COC(=O)C1CCCN1C(=O)[C@@H]1CCCN1C(=O)[C@H](Cc1c[nH]c2ccccc12)NC(=S)Nc1cc(C(F)(F)F)cc(C(F)(F)F)c1 (stereo not given in full): 4.2

Any idea what TGI came out for "COc1ccc2c(c1)-c1[nH]c3ccc(OC)cc3c1CC2" on OVCAR-8 ovarian?
27.3

====

// reported TGI for each item listed
# System: DMS 114 small cell lung
# run.description: NCI tumour cell line growth inhibition, 48 h

O=C1CCCC(=O)N1CCc1c[nH]c2ccccc12: > 100 µM

Any idea what TGI came out for "Cc1c(C(=O)CC(=O)C(=O)Nc2ccc(Cl)cc2)[n+](=O)c2ccccc2n1[O-]" on DMS 114 small cell lung?
> 100 µM

Any idea what TGI came out for "Cc1ccc([N+](=O)[O-])cc1NC(=O)c1cccc([N+](=O)[O-])c1O" on DMS 114 small cell lung?
43.2 µM

Any idea what TGI came out for "Nc1nc2n[nH]nc2c(=O)[nH]1" on DMS 114 small cell lung?
54.7 µM

Any idea what TGI came out for "O=C(O)CCc1cccc2c1oc1c(CCC(=O)O)cccc12" on DMS 114 small cell lung?
> 100 µM

Any idea what TGI came out for "COc1ccc(C(=O)O)c2c(=O)c3cccnc3[nH]c12" on DMS 114 small cell lung?
> 100 µM

Any idea what TGI came out for CN1CC[C@]2(C)c3cc(O)ccc3CC3CCCC1C32C (stereo partly specified) on DMS 114 small cell lung?
> 100 µM

Any idea what TGI came out for "CN(C)C=[N+]=[N-]" on DMS 114 small cell lung?
> 100 µM

Any idea what TGI came out for "Nc1c(C(=O)Nc2ccc(C3=NCCN3)cc2)cccc1C(=O)Nc1ccc(C2=NCCN2)cc1" on DMS 114 small cell lung?
> 100 µM

Any idea what TGI came out for C[n+]1c2ccccc2c(NC(CS)C(=O)O)c2ccccc21 (stereo unspecified) on DMS 114 small cell lung?
95.8 µM

Any idea what TGI came out for COc1cc(C(O)C(=O)c2nc3ccc([N+](=O)[O-])cc3[nH]c2=O)ccc1O (stereo unspecified) on DMS 114 small cell lung?
> 100 µM

====

# System: HS 578T breast
# run.description: NCI tumour cell line growth inhibition, 48 h; in the data active means GI50 below about 0.43 µM; inactive means the rest
Lab note: assign the record to one of True (active), False (inactive)

Oc1[nH]c2c(Br)cccc2c1C1=Nc2ccccc2/C1=N/OCCN1CCCC1: False

Pending compound:
Per the records of this test, what outcome belongs to "COc1cc(NC(=O)CSc2nc3ccc(C)cc3c(=O)n2Cc2ccccc2)cc(OC)c1OC" ?
False

====

# Test system: MCF7 breast
# run.description: NCI tumour cell line growth inhibition, 48 h; in the data active = GI50 below about 0.43 µM; inactive = the rest
Lab note: assign the record to one of 1 (yes) (active), 0 (no) (inactive)

Before answering, review these 4 worked examples.
Oc1ccccc1CNCC12CC3CC(CC(C3)C1)C2: 0 (no)
COc1cc2c(cc1OCCCCCOc1ccc(-n3c(C)nc4ccccc4c3=O)cc1)N=C[C@@H]1CCCN1C2=O: 1 (yes)
COc1cc(Cl)cc(-c2nn(-c3cccc(NC(=O)Nc4cc(C(F)(F)F)cc(C(F)(F)F)c4)c3)cc2-c2ccncc2)c1: 0 (no)
COc1cccc(OCCCN)c1-c1cc(Nc2cnc(C#N)cn2)n[nH]1: 1 (yes)

Pending molecule:
Per the records of this test, what outcome belongs to CN(C)CC1C(=O)O[C@H]2[C@H]1CC/C(COC(=O)c1cc3ccccc3[nH]1)=C\CC[C@@]1(C)O[C@@H]21 (stereo not given in full) ?
0 (no)

====

# Test system: IGROV1 ovarian
# run.description: NCI tumour cell line growth inhibition, 48 h
// reported TGI for each item listed
Report only the number, with the unit µM understood.

Clc1ccc2nnnn2n1: 50.1
CCC[CH2][Sn]([CH2]CCC)([CH2]CCC)[O]C(=O)c1ccc(Cl)cc1Cl: 0.308
Cc1cc2[nH]c(=O)c3c4ccccc4cn3c2cc1C: 26.6
CN(C)CCCN1c2ccccc2C(C)(C)c2ccccc21: 31.7
COc1cc(/C=N/NC(=O)c2cnn3c2NC(c2ccccc2)C3)ccc1Oc1ccccc1 (stereo not drawn): 10.8
CCOC(=O)/C(=C\c1ccc(C#N)cc1)C(C)=O: 33.9

Any idea what TGI came out for N#CC1=C(N)Oc2c(sc3c(Br)cccc23)C1c1ccc(Br)cc1 (stereo not drawn) on IGROV1 ovarian?
12.9

Any idea what TGI came out for Nc1nc(N)c2c(n1)NC(c1ccc(F)cc1)C1CCc3ccccc3C1=N2 (stereo not drawn) on IGROV1 ovarian?
24.1

Any idea what TGI came out for "C=C1C(=O)O[C@H]2[C@H](OC(C)=O)[C@@H](C)CCC/C(C)=C/CC[C@@]3(C)O[C@@H]3C[C@@H]12" on IGROV1 ovarian?
18.4

Any idea what TGI came out for "COc1cc(Cl)cc(-c2nn(-c3cccc(NC(=O)Nc4cc(C(F)(F)F)cc(C(F)(F)F)c4)c3)cc2-c2ccncc2)c1" on IGROV1 ovarian?
13.4

Any idea what TGI came out for "COC(=O)C1(C(=O)OC)Cc2ccc(C)cc2C2=C1C(=O)c1ccccc1C2=O" on IGROV1 ovarian?
44.3

====

# System: CCRF-CEM leukemia
# run.description: NCI tumour cell line growth inhibition, 48 h
readout.type: TGI

Recorded results for 2 compounds are shown here.
CN1CC[C@]2(C)c3cc(O)ccc3CC3CCCC1C32C (stereo partly specified): > 100 µM
COC(=O)C1(C(=O)OC)Cc2ccc(C)cc2C2=C1C(=O)c1ccccc1C2=O: 49.4 µM

// lookup TGI for "CC1=C(C(=O)N(C(C)C)C(C)C)CC(C(=O)N(C(C)C)C(C)C)=C(C)N1"
> 100 µM

// lookup TGI for "COC(=O)[C@@H](NC(=O)N(CCC#N)CCCN(C(=O)N[C@H](Cc1ccccc1)C(=O)OC)c1ccccc1)C(C)C"
> 100 µM

// lookup TGI for "O=C(NCCCCCCNC(=O)OCCSCCn1cc(C(=O)NC(=O)OCc2ccccc2)c(=O)[nH]c1=O)OCCSCCn1cc(C(=O)NC(=O)OCc2ccccc2)c(=O)[nH]c1=O"
> 100 µM

// lookup TGI for "COc1cc2c(cc1OCCCCCOc1ccc(-n3c(C)nc4ccccc4c3=O)cc1)N=C[C@@H]1CCCN1C2=O"
0.588 µM

// lookup TGI for "CCN(C(C)=O)c1cnc(/C=N/NC(N)=S)c2ccccc12"
> 100 µM

====

// reported TGI for each item listed
# System: OVCAR-5 ovarian
# run.description: NCI tumour cell line growth inhibition, 48 h

// lookup TGI for "COC(=O)CN1SC2(SC13C(C)(C)C(=O)C3(C)C)C(C)(C)C(=O)C2(C)C"
> 100 µM

// lookup TGI for CN(C)CC1CCCC(CN(C)C)C1=NOC(=O)c1ccccc1 (stereo not given)
> 100 µM

// lookup TGI for "C[N+]1(C)C/C(=C\c2ccccc2)C(=O)/C(=C/c2ccccc2)C1"
> 100 µM

// lookup TGI for "COc1cc([C@H]2CC(=O)C[C@H](c3cc(OC)c(OC)c(OC)c3)C23C(=O)c2ccccc2C3=O)cc(OC)c1OC"
> 100 µM

// lookup TGI for COc1cc(C(O)C(=O)c2nc3ccc([N+](=O)[O-])cc3[nH]c2=O)ccc1O (stereo not given)
> 100 µM

// lookup TGI for NC1=C(c2nc(-c3ccccc3)cs2)C(c2ccc(Br)cc2)c2c(c3ccccc3oc2=O)O1 (stereo not given)
> 150 µg/mL

// lookup TGI for O=C(O)CCC(NC(=O)c1ccccc1)C(=O)O (stereo not given)
> 100 µM

====

# Test system: HCC-2998 colon
# run.description: NCI tumour cell line growth inhibition, 48 h
readout.type: TGI (µM)
Report only the number, with the unit µM understood.

CC(NCCC(=O)N(CCC(=O)N(CCC(=O)N(CCC(=O)N(CCC(=O)N(CCC(=O)N(CCC(=O)N(CCC(=O)N(CCC(=O)N(CCC(=O)O)[C@H](C)c1ccccc1)[C@H](C)c1ccccc1)[C@H](C)c1ccccc1)[C@H](C)c1ccccc1)[C@H](C)c1ccccc1)[C@H](C)c1ccccc1)[C@H](C)c1ccccc1)[C@H](C)c1ccccc1)[C@H](C)c1ccccc1)c1ccccc1 (some centres not stated): 3.11
CC1(C)C/C(=N/O)c2c(nc3ccc4ccccc4c3c2-c2ccc(Cl)cc2)C1: 43.8
CCCCCCCCCCC(C(O)c1ccccc1)N1CCCCC1 (configuration not stated): 3.07
CNCCNc1c2c(c(NCCNC)c3[nH]ccc13)C(=O)c1ccccc1C2=O: 0.649

Here is another compound to look at.
// lookup TGI for "CC[C@@]1(OC(=O)CN)C(=O)OCc2c1cc1n(c2=O)Cc2cc3c(N)cccc3nc2-1"
0.782
